Origin of measurements: PubChem BioAssay (NCI)

tested on: SK-MEL-28 melanoma; test: NCI tumour cell line growth inhibition, 48 h
Measured Metric: TGI (µM)

[[record]]
item_smiles = "COc1ccc(-c2nnc(N3CCN(C(=O)CN4CCN(c5ccc(OC)cc5)CC4)CC3)nc2-c2ccc(OC)cc2)cc1"
reading_unit = "µM"
bound_operator = "="
quantitative_result = 34.6

[[record]]
item_smiles = "NC(=O)C1(N2CCCCC2)CCN(CCCC(=O)c2ccc(F)cc2)CC1"
reading_unit = "µM"
bound_operator = ">"
quantitative_result = 100

[[record]]
item_smiles = "CCC1=C[C@@H]2CN(C1)Cc1c([nH]c3ccccc13)[C@@](C(=O)OC)(c1cc3c(cc1OC)N(C)[C@H]1[C@@](O)(C(=O)OC)[C@H](OC(C)=O)[C@]4(CC)[C@@H]5C[C@@H]5CN5CC[C@]31[C@@H]54)C2"
reading_unit = "µM"
bound_operator = "="
quantitative_result = 7.96

[[record]]
item_smiles = "CN(C)Cc1cc(C(=O)/C=C/c2ccc(O)cc2)cc(CN(C)C)c1O"
reading_unit = "µM"
bound_operator = ">"
quantitative_result = 100

[[record]]
item_smiles = "O=C(/C=C/c1ccsc1)c1ccsc1"
reading_unit = "µM"
bound_operator = "="
quantitative_result = 89.3


----------
tested on: SN12C renal; assay: NCI tumour cell line growth inhibition, 48 h
Some compounds, each annotated with its measured GI50.
Measured Metric: GI50

[[record]]
compound = "Cn1cc(-c2csc(-c3cn(C)c4ccccc34)n2)c2cnccc21"
result = "1660 nM"

[[record]]
compound = "Cn1c2ccccc2c2c(=O)c3ccccc3[nH]c21"
result = "38500 nM"

[[record]]
compound = "OC(CN1CC1)C(O)CN1CC1 (stereo unspecified)"
result = "> 50 µg/mL"

[[record]]
compound = "O=C(/C=C/c1ccccc1)CC(c1ccccc1)N1CCOCC1 (stereo unspecified)"
result = "4250 nM"

[[record]]
compound = "CCCCCCCCCCCC[n+]1ccccc1 (tested in a mixture with another compound)"
result = "1190 nM"

[[record]]
compound = "CC1(C)N=C(N)N=C(N)N1c1ccc(OCC(=O)Nc2ccccc2)c(Cl)c1"
result = "647 nM"

[[record]]
compound = "OB1OCc2cc(/C=C/c3cccc(C(F)(F)F)c3)ccc21"
result = "1460 nM"

[[record]]
compound = "Cc1ccc2nc3c(Cl)c(C)c(=O)cc-3sc2c1"
result = "69000 nM"

[[record]]
compound = "CCOC1Oc2ccccc2-c2oc(=O)c(Sc3ccc(C)cc3)cc21 (stereo unspecified)"
result = "29500 nM"

[[record]]
compound = "Cn1c([N+](=O)[O-])cnc1/C=C1\\Oc2cc(Cl)ccc2C1=O"
result = "713 nM"

[[record]]
compound = "NC(=O)c1cccc(Nc2nccc(Nc3cccc(F)c3)n2)c1"
result = "7980 nM"


----------
system: TK-10 renal; assay: NCI tumour cell line growth inhibition, 48 h; in the data active = GI50 below about 0.43 µM; inactive = the rest
Classes used: label 1 = active, label 0 = inactive

[[record]]
item_smiles = "COc1cc2c(cc1-c1c(C)noc1C)cc(C)c(=O)n2Cc1ccccn1"
label_value = "label 1"

[[record]]
item_smiles = "NC(=O)c1cccc(Nc2nccc(Nc3cccc(F)c3)n2)c1"
label_value = "label 0"

[[record]]
item_smiles = "CC1(C)N=C(N)N=C(N)N1c1ccc(OCC(=O)Nc2ccccc2)c(Cl)c1"
label_value = "label 0"

[[record]]
item_smiles = "C=C(CN1CCc2ccccc2C1)c1ccc(C(=O)Nc2ccccc2N)cc1"
label_value = "label 0"

[[record]]
item_smiles = "C[C@H]1[C@H](C)CC[C@]2(C(=O)NCCNCCN)CC[C@]3(C)C(=CC[C@@H]4[C@@]5(C)CCC(=O)C(C)(C)[C@@H]5CC[C@]43C)[C@H]12"
label_value = "label 0"

[[record]]
item_smiles = "CCC(=C(c1ccc(OCCCN(C)C)cc1)c1ccc(OCCCN(C)C)cc1)c1ccc(Cl)cc1"
label_value = "label 0"


----------
GI50 listing for selected compounds.
test system: OVCAR-8 ovarian; assay: NCI tumour cell line growth inhibition, 48 h
Measured Metric: GI50

[[record]]
compound = "O=S1(=O)NCCCN1CCNc1nccc(-c2c(-c3cccc(O)c3)nc3sccn23)n1"
result = "2860 nM"

[[record]]
compound = "O=C(/C=C/c1ccccc1)CC(c1ccccc1)N1CCOCC1 (stereo not drawn)"
result = "4570 nM"

[[record]]
compound = "O=C(c1ccc2ccccc2c1)c1c(C(F)(F)F)n([O-])c2ccc(Cl)cc2[n+]1=O"
result = "1550 nM"


----------
test system: NCI-H460 lung
In this section, each of the molecules is paired with its reported GI50.
Measured Metric: GI50

[[record]]
molecule = "Cc1ccc2nc3c(Cl)c(C)c(=O)cc-3sc2c1"
measured_metric = "GI50"
result = "50.3 µM"

[[record]]
molecule = "COc1ccc(CC(C)C(C)Cc2ccc(OC)c(OC)c2)cc1OC (stereo unspecified)"
measured_metric = "GI50"
result = "> 1400 µM"

[[record]]
molecule = "CCOC1Oc2ccccc2-c2oc(=O)c(Sc3ccc(C)cc3)cc21 (stereo unspecified)"
measured_metric = "GI50"
result = "20 µM"

[[record]]
molecule = "O=S1(=O)NCCCN1CCNc1nccc(-c2c(-c3cccc(O)c3)nc3sccn23)n1"
measured_metric = "GI50"
result = "21.5 µM"

[[record]]
molecule = "O=C1c2cccnc2-c2nc(-c3ccncc3)cc3c2c1nc1ccccc13"
measured_metric = "GI50"
result = "6.29 µM"

[[record]]
molecule = "C=C(CN1CCc2ccccc2C1)c1ccc(C(=O)Nc2ccccc2N)cc1"
measured_metric = "GI50"
result = "3.06 µM"

[[record]]
molecule = "Cn1c2ccccc2c2c(=O)c3ccccc3[nH]c21"
measured_metric = "GI50"
result = "32.4 µM"

[[record]]
molecule = "O=c1c2c3c(sc2n2c(-c4cc(-c5ccccc5)nn4-c4ccccc4)nnc2n1Cc1ccccc1)CCCC3"
measured_metric = "GI50"
result = "> 100 µM"

[[record]]
molecule = "c1ccc(Cn2cnc3ccc(-c4nc(-c5ccc6c(c5)ncn6C5CCCCC5)cn5ccnc45)cc32)cc1"
measured_metric = "GI50"
result = "2.3 µM"

[[record]]
molecule = "O=C(/C=C/c1ccccc1)CC(c1ccccc1)N1CCOCC1 (stereo unspecified)"
measured_metric = "GI50"
result = "15.5 µM"

[[record]]
molecule = "COc1ccccc1-c1cc(=O)c2ccc(C)nc2[nH]1"
measured_metric = "GI50"
result = "98.7 µM"


----------
tested on: HOP-62 NSCLC; test: NCI tumour cell line growth inhibition, 48 h
Quick reference for log10 TGI among some compounds
Measured Metric: log10 TGI (log10 of the value in µM)

[[record]]
compound = "CC1CC[C@@]2(OC1)OC1C[C@H]3[C@@H]4CC[C@H]5CC(OC6OC(CO)C(OC7OC(CO)C(O)C(O)C7OC7OC(CO)C(O)C(O)C7O)C(O)C6O)CCC5(C)[C@H]4CCC3(C)C1[C@@H]2C (stereo not given in full)"
quantitative_result = 0.56

[[record]]
compound = "CN(C)Cc1c[nH]c2c(NCCN)c3c(c(NCCN)c12)C(=O)c1ccccc1C3=O"
quantitative_result = 0.81

[[record]]
compound = "CCCCCCCCCCCCCCCCCCNC(=O)[C@H]1CSC(c2cccs2)N1 (stereo not given in full)"
quantitative_result = 0.23

[[record]]
compound = "O=C(NCCN1CCOCC1)c1ccc2cc(C(=O)N3CC(CCl)c4ccc([N+](=O)[O-])cc43)[nH]c2c1 (stereo not given)"
quantitative_result = 1.49

[[record]]
compound = "O=C(CNc1ccccc1Cl)Nn1c(-c2ccccc2)nc2ccccc2c1=O"
quantitative_result = 1.86

[[record]]
compound = "CC(C)/C(Cl)=N\\OC(=O)Nc1ccc(C#N)cc1"
quantitative_result = 1.50


----------
tested on: HCC-2998 colon; assay: NCI tumour cell line growth inhibition, 48 h
The following compounds are shown together with reported GI50 values.
Measured Metric: GI50

[[record]]
compound = "c1ccc(Cn2cnc3ccc(-c4nc(-c5ccc6c(c5)ncn6C5CCCCC5)cn5ccnc45)cc32)cc1"
result = "1900 nM"

[[record]]
compound = "CCOC1Oc2ccccc2-c2oc(=O)c(Sc3ccc(C)cc3)cc21 (stereo unspecified)"
result = "52200 nM"

[[record]]
compound = "O=C(/C=C/c1ccccc1)CC(c1ccccc1)N1CCOCC1 (stereo unspecified)"
result = "1900 nM"

[[record]]
compound = "CCC(=C(c1ccc(OCCCN(C)C)cc1)c1ccc(OCCCN(C)C)cc1)c1ccc(Cl)cc1"
result = "510 nM"

[[record]]
compound = "CCCCCCCCCCN=C(c1ccc(N(C)C)cc1)c1ccc(N(C)C)cc1"
result = "5070 nM"

[[record]]
compound = "O=C(c1ccc2ccccc2c1)c1c(C(F)(F)F)n([O-])c2ccc(Cl)cc2[n+]1=O"
result = "1260 nM"

